Tested on: Matricaria inodora
test: Post-emergence herbicidal activity, greenhouse pot test
Type: in vivo
conditions: one-leaf stage, 80 g/ha, scored visually after approx. 3 weeks, 100% = plants have died, 0% = like control
# key: entry, value: herbicidal activity MATIN

[
  {
    "compound": "COc1cc(Cl)nc(NC(=O)NS(=O)(=O)c2ccccc2OC(C)C(F)(F)F)n1 (stereo not drawn)",
    "herbicidal activity MATIN": "90%"
  },
  {
    "compound": "COc1nc(NC(=O)NS(=O)(=O)c2ccccc2OC(C)C(F)(F)F)nc(OC)n1 (stereo not drawn)",
    "herbicidal activity MATIN": "90%"
  },
  {
    "compound": "COc1cc(C)nc(NC(=O)NS(=O)(=O)c2ccccc2OC(C)C(F)(F)F)n1 (stereo not drawn)",
    "herbicidal activity MATIN": "80%"
  },
  {
    "compound": "COc1cc(OC)nc(NC(=O)NS(=O)(=O)c2ccccc2OC(C)C(F)(F)F)n1 (stereo not drawn)",
    "herbicidal activity MATIN": "90%"
  },
  {
    "compound": "COc1nc(C)nc(NC(=O)NS(=O)(=O)c2ccccc2OC(C)C(F)(F)F)n1 (stereo not drawn)",
    "herbicidal activity MATIN": "90%"
  },
  {
    "compound": "Cc1cc(C)nc(NC(=O)NS(=O)(=O)c2ccccc2OC(C)C(F)(F)F)n1 (stereo not drawn)",
    "herbicidal activity MATIN": "80%"
  }
]

Where these numbers come from: patent US20110105324A1
